This section presents compounds with their documented mass density values.
cond: 298.15 K; 101.33 kPa; Liquid; Vibrating tube method

- structure notation: "CCCCCCC"
  mass density, kg/m3: 679.71
- structure notation: "CCCCCCCCCCCC"
  mass density, kg/m3: 741.54
- structure notation: "CCCCCCCCCCCCCC"
  mass density, kg/m3: 759.27
- structure notation: "OCc1ccccc1"
  mass density, kg/m3: 1043.53
- structure notation: "CCCCCCCC"
  mass density, kg/m3: 698.76
- structure notation: "CCCCCCCCCC"
  mass density, kg/m3: 726.43

Where these numbers come from: the NIST ThermoML archive (doi:10.1021/je300146k)
